biological target: human MC4R receptor (human, UniProt P32245 1-332); experiment: cell-based or functional assay
Sequence (P32245 whole entry): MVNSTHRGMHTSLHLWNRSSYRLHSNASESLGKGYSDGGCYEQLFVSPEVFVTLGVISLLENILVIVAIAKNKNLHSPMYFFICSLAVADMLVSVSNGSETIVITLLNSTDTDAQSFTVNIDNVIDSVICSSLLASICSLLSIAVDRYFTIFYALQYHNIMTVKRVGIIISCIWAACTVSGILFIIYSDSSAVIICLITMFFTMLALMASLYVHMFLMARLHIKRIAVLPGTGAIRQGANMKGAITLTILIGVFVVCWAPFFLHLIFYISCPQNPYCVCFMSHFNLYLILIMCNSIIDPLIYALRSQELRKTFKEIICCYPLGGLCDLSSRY
Positions of bridges follow the written chain, without caps; N, C: chain ends. Non-standard residues stand in square brackets, D forms with d. Nle = CCCC[C@H](N)C(=O)O; Aib = CC(C)(N)C(=O)O
measure_name: cAMP EC50
Could you give the number and then its unit, please?

Record excerpt, results attached:
INSERT INTO assay_data (binder, result) VALUES
  ('Ac-C[Aib]H[dF]RFC-NH2 (disulfide 1-7; SMILES CC(=O)N[C@H]1CSSC[C@@H](C(N)=O)NC(=O)[C@H](Cc2ccccc2)NC(=O)[C@H](CCCNC(=N)N)NC(=O)[C@@H](Cc2ccccc2)NC(=O)[C@H](Cc2c[nH]cn2)NC(=O)C(C)(C)NC1=O) [CTX-1634]', '8.5 nM'),
  ('Ac-R[Nle]CH[dF]RWC-NH2 (disulfide 3-8; SMILES CCCC[C@H](NC(=O)[C@H](CCCNC(=N)N)NC(C)=O)C(=O)N[C@H]1CSSC[C@@H](C(N)=O)NC(=O)[C@H](Cc2c[nH]c3ccccc23)NC(=O)[C@H](CCCNC(=N)N)NC(=O)[C@@H](Cc2ccccc2)NC(=O)[C@H](Cc2c[nH]cn2)NC1=O) [CTX-1227]', '0.3 nM');

Please examine the following record next.
cAMP EC50 measured on Ac-RC[dA]R[dF]R[dF]C-NH2 (disulfide 2-8; SMILES CC(=O)N[C@@H](CCCNC(=N)N)C(=O)N[C@H]1CSSC[C@@H](C(N)=O)NC(=O)[C@@H](Cc2ccccc2)NC(=O)[C@H](CCCNC(=N)N)NC(=O)[C@@H](Cc2ccccc2)NC(=O)[C@H](CCCNC(=N)N)NC(=O)[C@@H](C)NC1=O) [CTX-1265] = 703 nM
